Tested on: UACC-62 melanoma
Assay: NCI tumour cell line growth inhibition, 48 h
Consider the following molecules; for each one, report its TGI.

Hello, please tell me recorded TGI for this one: CCCCCCCCOCC(O)CO (stereo not drawn) > 100 µM

Let me know recorded TGI for CC(C)(C)C1CCC2c3c([nH]c4ncccc34)C3C(=O)N(c4ccccc4)C(=O)C3C2C1 (stereo not drawn) , thanks. > 100 µM

Read off the recorded TGI for `Clc1cc2ccccc2c2ccccc12` > 100 µM

Give me measured TGI, please, for this molecule: `c1ccc(CN2CCc3[nH]c4ccccc4c3C2)cc1` 66.9 µM

Give reported TGI value for COc1cccc2c1C1(O)C2CCCCCCCCCC12OCCCO2 (stereo not drawn) > 100 µM

Respond only with TGI recorded for `O=C(/C=C/c1ccc(OCc2ccccc2)cc1)NCc1ccc(C(=O)NCCc2c[nH]c3ccccc23)cc1` 51.7 µM

Could you please provide reported TGI for `O=[N+]([O-])c1cccc(-c2nc(-c3ccc(Cl)cc3Cl)cn2-c2ccccc2)c1` ? Thanks! > 33.3 µM

For the molecule O=C1CC(c2c(-c3ccccc3)[nH]c3ccccc23)C(=O)N1c1ccccc1 (stereo not drawn) , give its reported TGI. > 100 µM

Read the entry `N#Cc1c(C#N)c(-c2ccccc2)n(Cc2ccccc2)c1N` and write its reported TGI. > 100 µM

Return TGI (reported value) for this molecule: `C[P+](C)(C)C` > 100 µM

# return recorded TGI for entry NC1C=NNC1=O (stereo not drawn) > 100 µM

Identify measured TGI associated with `COc1cccc(-c2nn(-c3ccccc3)cc2-c2ccnc(NCCCNC(=O)c3cccc(C(F)(F)F)c3)c2)c1` 16.2 µM

Identify the reported TGI for the following entry. COc1ccc2c(c1)CC1COc3cc(OC)ccc3C1O2 (stereo not drawn) > 100 µM

Report TGI, nothing else, for this molecule: O=C1C(=C2CCCC2)CCC1CN1CCCCC1 (stereo not drawn) 34 µM

Answer with the recorded TGI of `COc1cc2c(oc(=O)c3c4occc4cc(OC)c23)c2cccc(OCc3ccccc3)c12` only. > 100 µM

Supply recorded TGI for O=C1c2c(O)cc(O)cc2C(C2OC(CO)C(O)C(O)C2O)c2cc(CO)cc(O)c21 (stereo not drawn) here. > 100 µM

For the molecule `O/N=C1\CC2(N3CCOCC3)CCC1(c1ccccc1)CC2` , report TGI. > 100 µM

Check the records and state TGI for `COc1ccc(/C=C2\C[C@H]3[C@@H]4CC=C5C[C@@H](OC(C)=O)CC[C@]5(C)[C@H]4CC[C@]3(C)\C2=N\O)cc1OC` > 100 µM

Report measured TGI; entry is `Nc1c(OCC(=O)O)ccc2cc(S(=O)(=O)O)ccc12` > 100 µM

Note TGI for the molecule shown: CCCCC(C)/C=C/C(=O)C1=C(O)/C(=C/C(=O)O)OC1=O (stereo not drawn) > 100 µM

Supply measured TGI of `CS(=O)(=O)Nc1cc(-c2ccc3ncnc(Nc4ccc(F)c(Cl)c4)c3c2)cnc1Cl` in your reply. 1.56 µM

Report measured TGI; entry is `CC(C)(C)c1cc2c(c(C(C)(C)C)c1O)CC(=O)O2` 77.5 µM

Output measured TGI for this item: `CC(C)(C)c1cc(C(=O)Nc2ccc(C(=O)NCCN)cc2)cc(C(C)(C)C)c1` 3.56 µM

Look up TGI of `CCC(=O)NI1OC(=O)c2ccccc21` and report it. > 100 µM

Name the recorded TGI of the item O=C(O)C1OC1C(=O)O (stereo not drawn) in your answer. > 100 µM

// Input: `CC1=C(/C=C/C(=O)CC(=O)/C=C/C2=C(C)CCCC2(C)C)C(C)(C)CCC1` . Output its TGI only. 44.7 µM

Determine its reported TGI: `CNC(=O)N(CCC#N)CCN(C(=O)N(C)C)c1ccccc1` > 100 µM

Given the molecule `O=c1cc(-c2ccccc2)[nH]c2ccc(S)cc12` , write its reported TGI. > 100 µM

Fill in reported TGI for this entry: `O=c1c2ccccc2[nH]c2c(O)ccc(O)c12` 33.5 µM

For the molecule C=C(Cl)/C(=C\Cl)CCC(Cl)C(C)C (stereo not drawn) , report TGI. > 100 µM

Consider the molecule CC[C@@]1(OC(=O)C(N)CCCCN)C(=O)OCc2c1cc1n(c2=O)Cc2cc3ccccc3nc2-1 (stereo partly drawn) and give its recorded TGI. 0.0707 µM

Consider the molecule CC1=CC(C)(c2c[nH]c3ccccc23)CC(C)(C)c2c1[nH]c1ccccc21 (stereo not drawn) and give its recorded TGI. 36.6 µM

Give TGI for `O=C1C[C@H](COCc2ccccc2)NC(=O)C[C@H](COCc2ccccc2)NC(=O)C[C@H](COCc2ccccc2)N1` > 100 µM

Give recorded TGI. `Cn1c(=O)nc2n(-c3ccc(Cl)cc3)c(-c3ccccc3)c(-c3ccccc3)nc-2c1=O` 32.5 µM

Provide only the value of recorded TGI for `NCCCCCNc1noc(Cc2c[nH]c3cc(Br)ccc23)n1` 10.1 µM

Look up and report measured TGI for this entry: O=C(O)C1CC=CCC1C(=O)Nc1cccc(O)c1 (stereo not drawn) > 100 µM

Hello, please tell me recorded TGI for this one: `O=c1[nH]nc(-c2ccccc2)n1/N=C/c1ccco1` > 100 µM

Supply measured TGI of `Cc1cc(C(=O)/C=C/c2ccc[nH]2)ccc1-n1ccc(C(F)(F)F)n1` in your reply. > 100 µM
